experiment: qHTS for induction of synthetic lethality in tumor cells producing 2HG: qHTS for the HT-1080-IDH1KD cell line; conditions: HT-1080 IDH1 knockdown viability, ATP luminescence, 48 h; series mostly up to 46.1 µM
Hit rate of the full screen: of about 360,000 compounds, about 7,500 (2.1%) were called active. Not shown: some 8% with an inconclusive outcome. The call rests on the fitted dose curve; in most records, active means well fitted cell-killing curve with a large enough effect; inconclusive means small, poorly fitted or top-dose-only effect, or effect the other way, or another doubt; inactive means no such curve, though single readings can be large or run the other way. For the sample, actives were picked, then their nearest neighbours and some compounds at random.
Permitted responses: 1 for active, 0 for inactive

Answered examples (2):
Query: How was COc1cc(/C=N\NC(=O)C2C(=O)NCC2c2ccccc2)cc(OC)c1O (configuration not stated) classified in this test?
Reply: 0

Query: How was COc1ccc(/C=N/NC(=O)c2ccncc2)cc1CN1CCCc2ccccc21 classified in this test?
Reply: 0

Next:
Query: How was O=C(OCC(=O)N1CCCCCC1)c1cccc(Cl)c1Cl classified in this test?
Reply: 0

Query: How was COc1ccccc1CNc1nc(Nc2ccccc2Cl)c2sccc2n1 classified in this test?
Reply: 0

Query: How was CC(C)CN1CCC1(C)C(=O)Nc1ccc(OC(F)F)cc1 (configuration not stated) classified in this test?
Reply: 0

Query: How was CCCC(=O)Nc1ccc2c(c1)nc1n2CCSC1 classified in this test?
Reply: 0

Query: How was COc1ccc(NC(=O)CNC(=O)Cc2ccccc2)cc1OC classified in this test?
Reply: 0

###

test: qHTS for induction of synthetic lethality in tumor cells producing 2HG: qHTS for the HT-1080-IDH1KD cell line; conditions: HT-1080 IDH1 knockdown viability, ATP luminescence, 48 h; series mostly up to 46.1 µM
Screen size: about 360,000 compounds; about 7,500 (2.1%) were called active. Not shown: some 8% with an inconclusive outcome. Calls follow the shape of the dose curve; as a rule, active = well fitted cell-killing curve with a large enough effect; inconclusive = small, poorly fitted or top-dose-only effect, or effect the other way, or another doubt; inactive = no such curve, though single readings can be large or run the other way. Many of the other results were omitted from the sample, so actives are more common in it than they were.
Permitted responses: active, inactive

Answered examples (5):
Query: How was CC(=O)NC1=NN(C(C)=O)C(C)(CCS(=O)(=O)c2ccc(Cl)c(Cl)c2)S1 (stereo not given) classified in this test?
Reply: inactive

Query: How was COC(=O)c1ccc2nc(C3CCCCC3)c(Cc3cccc(F)c3)n2c1 classified in this test?
Reply: inactive

Query: How was O=C(NCCN1CCOCC1)C1CCN(S(=O)(=O)c2ccccc2)CC1 classified in this test?
Reply: inactive

Query: How was COc1ccc(-n2cc(CNC3CCOCC3)c(-c3cccc(F)c3)n2)cc1 classified in this test?
Reply: active

Query: How was CCC(O)C1CCN(Cc2cn(-c3ccc(OC)cc3)nc2-c2cccc(F)c2)CC1 (stereo not given) classified in this test?
Reply: active

Next:
Query: How was CC1(C(=O)Nc2ccc3c(c2)OCCO3)CCN1C(=O)Cc1cc(F)ccc1F (stereo not given) classified in this test?
Reply: inactive

Query: How was CCOc1cc(-c2cc(-c3ccc(NC(C)=O)cc3)nc(N)c2C#N)ccc1O classified in this test?
Reply: inactive

Query: How was Cc1cc(C(=O)Nc2nnc(C3CC3)s2)c(C)s1 classified in this test?
Reply: inactive

Query: How was CC1=C(C(=O)N(C)C)CC(CC(=O)NCCc2ccccn2)C(=O)N1CCC1=CCCCC1 (stereo not given) classified in this test?
Reply: inactive

Query: How was CC(=O)Nc1cnc(-c2ccc(O)cc2C)cn1 classified in this test?
Reply: inactive

Query: How was CCOc1cc(/C=C(\C#N)c2nc(-c3cccs3)c(NC(C)=O)s2)ccc1O classified in this test?
Reply: active

Query: How was CCCCOC(=O)Nc1nnc(CC(=O)NCc2ccccc2)s1 classified in this test?
Reply: active

Query: How was Cc1onc(-c2ccccc2)c1-c1nnc(COC(=O)c2ccc(N(C)C)cc2)o1 classified in this test?
Reply: inactive

Query: How was CCOc1cccc(-n2nnnc2-c2ccc(OC)cc2)c1 classified in this test?
Reply: active

Query: How was NC(=O)NC(CC(=O)NNC(=O)c1ccccn1)c1ccc(Cl)cc1 (stereo not given) classified in this test?
Reply: inactive

Query: How was O=C(Nc1ccc(F)cc1)Nc1nnc([C@H]2C[C@H](O)[C@@H](CO)O2)s1 classified in this test?
Reply: inactive

Query: How was C=CCN(CC=C)S(=O)(=O)c1ccc(C(=O)Nc2nc3c(s2)CCc2ccccc2-3)cc1 classified in this test?
Reply: active

Query: How was C/C(=N\NC(=O)Cc1ccc(Cl)cc1)c1ccccn1 classified in this test?
Reply: active

Query: How was O=C(/C=C/[C@H]1O[C@@H](n2ccc(=O)[nH]c2=O)[C@H](O)[C@@H]1O)NCc1ccccn1 classified in this test?
Reply: inactive

Query: How was COCCNC(=O)C1CCCN(Cc2ccccc2Cl)CC1 (stereo not given) classified in this test?
Reply: inactive

Query: How was COC(=O)c1ccc2nc(-c3ccc(C)cc3)c(Cc3ccc(OC)cc3C)n2c1 classified in this test?
Reply: inactive

Query: How was Nc1nc2ncccn2c1-c1ccccc1 classified in this test?
Reply: inactive
